# test: yeast display, Sf9 membrane polyspecificity reagent, FACS + sequencing; frameworks hold sequencing errors
endpointName: polyreactivity (PSR sort gate)

residues	experimentalResult
QVQLVESGGGLVQAGGSLRLSCAASGRTFRYYALGWYRQAHGKERELVPRITRGATTNYADSVKGRFTISRDNAKNTVYLQMNSLKPEDTAVYYCAVTPLYGSDRRGWFSSDYWGQGTHVTVSS	high polyreactivity
QVQLVESGGGLVQAGGSLRLSCAASGIIFGWYAMGWYRQAPGKERELVAAISSGGRTNYADSVKGRFTISRDNAKNTVYLQMNSLKPEDTEVYYCAAAYIRGSRRYDYCGQGTQVTVSS	high polyreactivity
QVQLVESGGGLVQAGGSLRLSCAASGRIFGPYAMGWYRQAPGKERELVAAITWSSGITYYADSVKGRFTISRDNAKNTVYLQMNSLKPEDTAVYYCAADSRLPYYRIMEYWGQGTQVTVSS	low polyreactivity
QVQLVESGGGLVQAGGSLRLSCAASGFTFYTNAMGWYRQATGKERELVAVITSGGNTYYADSVKGRFTISRDNAKYTVYLQMNSLKPEDTAVYYCAAKPKRPIRFDYWGQGTQVTVSS	high polyreactivity
QVQLVESGGGLVQAGGSLRLSCADSGFTFSSYAMGWYRQAPGKDRELVAAISTRGGSTYYADSVKGRFTISRDYANKTVYLQMNSLKPEDTAVYYCATGGRGGRRYEYWGQGTQVTVSS	low polyreactivity
QVQLVESGGGLVQAGGSLRLSCAASGGIFYFNAMGWYRQAPGKERELVASITWSGGNTYYADSVKGRFTISRDNAKNTVYLQMNSLKPEDTAVYDCAADTQEYRPTYDYWGQGTQVTVSS	low polyreactivity
QVQLVESGGGLVQAGGSLRLSSAASGRTFYLYAMGWYRQAPGKAMELVAAISRSGGITYYADSVKGRFTISRDNAKNTVYLQMNSLKPEDTGVYYCAASRAGGYYGKGYSWGQGSQVTVSS	high polyreactivity
HVQHVESGGGLVQAGGSLRLSCAASGRTFGYYALGWYRQAPGKERELVARISTRGGSTNYADSVKGRFTISRDNAKNTVFLQMNSLKPEDTAVYSCYARGGYGGGYDYWVQGTQVTVSS	high polyreactivity
QVHLVESGGCLVQAGGSLRLSCAASGSIFGDYVMAWYRQAPGKERELVAAITRGGSTYYADSVKGRFTFSRDNAKNTVYLQMNSLKPEDTAVYYCAASYYFVQWGWYYYWGQGTQVTVSS	low polyreactivity
QVQLVESGGGLVQAGGSLRLSCPASGRIFTYYTMGWYRQAPGKERELVASITGGGGRTYYADSVKGRFTISRDNAKNTVYLQMNSLKPEDTAVYYCNDRYPYPYWYTSYDYWGQGSQVTVSS	high polyreactivity
QVQLVESGGGLVQAGGSLRLSCAASGSTFSPYAMGGSRQAPGKEREVVAAINSGSSTNYADSVKGRFTISRDNAKNTVYFQMNSLKPEDTAVYYCAADGQLPPRGILASWEFDYWGQGTQVTVSS	low polyreactivity
QVQLVESGGGLVQAGGSLRLSWAASGFIFAYYAMGWYTPAPGKERELVAAISKRGGSTYYADSVKGRFTISRDNAKNTVYLQMNSLKPEDTAVYYCAADGHGGYGYWGQGTQVTVSS	high polyreactivity
QVQLVESGGGLVQAGGSLRLSCAASGFTFGRYARGWYRQAPGKERELVAAISRGGSSTYYADSVKGRFTISRDNAKNTVYLQMNSLKPEDTAVYYCNKVIIWARFDYWGQGTQVTVSS	high polyreactivity
QVQLVESGGGLVQAGGSLRLSCAASGYTFAWYAMGWYRQAPGKERELVAAITVSGGSTYYADSVKGRFTISRDNAKNTVYVQMNSLKPEDTAVYYCAADYAPLDLYQDSTVYSSGDYWGQGTQVTVSS	low polyreactivity
QVQLVESGGGLVQAGGSLRLSCAASGITFYIYAMGWYRQAPGKEREFVASITWRGGSTYYADSVKGRFTISRDNAKNTVYLQMNSLKPEDTAVYYCNAEYSSSRYWYYDYWGQGTQVTVSS	high polyreactivity
QVQLEESGGGLVQAGGSLRLSCAASGRIFFKYSMGWYRQAPGKERELVATISSSTGSTYYADSVKGRFTISRDNAKNTDYLQMNSLKPEDTAVYYCNARVRTQQRWVDYWGQGTQVTVSS	high polyreactivity
QVQLVESGGGLVQAGGSLRLSCAASGFTFWRYTMGWYRQAPGKERELVAAINWSGGRTYYADSVKGRFTISRDNAKNTVYLQMNSLKPEDTAVYYCATGYSTSVGGSQGDSWGQGTQVTVSS	high polyreactivity
QVQLVESGGGLVQAGGSLRLSCAASGSIFPRNAMGWYRQAPGKERELVAAITSSGGTTYYADSVKGRFTISRDNAKNTVYLQMISLKPEDTAVYYCNAAYPYSSVGRDYWGQGTQVTVSS	high polyreactivity
QVQLVETGGGLVQAGGSLRLSCAASGRIFYYYAMGWYRQAPGKERELVAGIDSGDSTNYADSVKGRFTISRDNAKNTVYLQMNSLKPEDTAVYYCAALHYGVYFSYYPYYYWGQGTQVTVSS	low polyreactivity
QVQLVESGGGLVQAGGSLRLSCAASGFIFARYGMGWYRQAPGKERELVAAIRTSGGTYYADSVKGRFTISRDNAKNTVYLQMNSLKPEDTAVYYCNVYRRVIWPKNYDYWGQGTQVTVSS	high polyreactivity
QVQLVESGGGLVQAGGSLRLSCAASGITIRYYTMGWYRQAPGKESELVASISWSGTSTHYADSVKGRFTISRDNAKNTVYLQMNSLKPEDTAVYYCAATITSLAGVYRNGYTSYYWGQGTQVTVSS	high polyreactivity
